# key: entry, value: SKW3 WT anti-mFc 647, gMFI
# STUDY_SYSTEM: T1, human CD4 on cells (SKW3 cells; human PBMCs) (human, UniProt P01730 26-458)
# T1 construct: whole, on cells; SKW3 CD4 knockout cells served as the negative cell line; also called hCD4
# PROTOCOL_NOTES: FACS confirmation, supernatant on SKW3 WT cells, anti-mouse Fc 647; background gMFI 3300
The answer is to be given in gMFI; state only the numeric part.

A selection of reference data follows.
INSERT INTO measurements (binder, recorded_metric, observed_result) VALUES
  ('75110_14P05A (antibody, V domains shown, Tested as non-clonal AlivaMab Mouse Kappa hybridoma supernatant: human variable domains and human kappa, mouse Fc) VH: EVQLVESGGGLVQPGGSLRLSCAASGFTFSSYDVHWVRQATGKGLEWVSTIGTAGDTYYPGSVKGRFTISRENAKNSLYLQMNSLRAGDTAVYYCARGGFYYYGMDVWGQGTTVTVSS VL: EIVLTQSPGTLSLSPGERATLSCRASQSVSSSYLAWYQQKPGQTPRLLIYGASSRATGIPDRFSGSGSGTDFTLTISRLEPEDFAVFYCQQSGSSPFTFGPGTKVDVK', 'SKW3 WT anti-mFc 647, gMFI', 24000),
  ('75110_01J17A (antibody, IgG1, V domains shown, Tested as non-clonal AlivaMab Mouse Kappa hybridoma supernatant: human variable domains and human kappa, mouse Fc) VH: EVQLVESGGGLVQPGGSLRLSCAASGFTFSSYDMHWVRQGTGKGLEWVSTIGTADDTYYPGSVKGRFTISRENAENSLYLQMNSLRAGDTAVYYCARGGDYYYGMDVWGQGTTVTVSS VL: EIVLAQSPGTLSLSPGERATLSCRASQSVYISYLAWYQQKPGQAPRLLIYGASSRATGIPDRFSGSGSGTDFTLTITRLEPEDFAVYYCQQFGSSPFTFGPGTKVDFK', 'SKW3 WT anti-mFc 647, gMFI', 31600),
  ('75110_01G11A (antibody, IgG1, V domains shown, Tested as non-clonal AlivaMab Mouse Kappa hybridoma supernatant: human variable domains and human kappa, mouse Fc) VH: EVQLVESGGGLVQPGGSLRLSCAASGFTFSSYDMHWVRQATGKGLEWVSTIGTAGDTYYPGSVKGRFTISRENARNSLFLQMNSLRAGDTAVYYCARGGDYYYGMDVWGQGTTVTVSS VL: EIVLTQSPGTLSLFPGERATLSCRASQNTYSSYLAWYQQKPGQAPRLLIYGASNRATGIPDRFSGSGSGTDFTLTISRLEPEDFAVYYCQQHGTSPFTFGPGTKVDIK', 'SKW3 WT anti-mFc 647, gMFI', 19200),
  ('75110_05K11A (antibody, IgG1, V domains shown, Tested as non-clonal AlivaMab Mouse Kappa hybridoma supernatant: human variable domains and human kappa, mouse Fc) VH: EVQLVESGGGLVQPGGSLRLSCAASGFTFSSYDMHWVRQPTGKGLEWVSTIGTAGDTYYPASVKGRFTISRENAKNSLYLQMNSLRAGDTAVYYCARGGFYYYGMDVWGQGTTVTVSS VL: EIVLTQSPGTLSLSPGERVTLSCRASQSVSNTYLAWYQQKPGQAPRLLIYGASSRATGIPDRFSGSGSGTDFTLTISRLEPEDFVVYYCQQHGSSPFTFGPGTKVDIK', 'SKW3 WT anti-mFc 647, gMFI', 35900);

Item under review: 75110_04G16A (antibody, V domains shown, Tested as non-clonal AlivaMab Mouse Kappa hybridoma supernatant: human variable domains and human kappa, mouse Fc) VH: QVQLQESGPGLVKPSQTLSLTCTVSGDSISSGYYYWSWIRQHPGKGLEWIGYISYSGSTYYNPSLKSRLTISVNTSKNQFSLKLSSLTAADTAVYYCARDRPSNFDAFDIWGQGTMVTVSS VL: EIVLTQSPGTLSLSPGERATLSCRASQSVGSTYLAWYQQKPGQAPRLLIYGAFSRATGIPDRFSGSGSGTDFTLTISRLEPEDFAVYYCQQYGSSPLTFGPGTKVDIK . Reported SKW3 WT anti-mFc 647, gMFI?
32500
